Just for reference, patent EP0951284B1 is where these values come from.

We begin with a simple list: items and their reported LD50 at 6 h.
Assay: Acute toxicity in mice (sub-cutaneous, lethality within 6 hours)
Settings: mouse, in vivo, sc; sub-cutaneous, mice, within 6 hours
Where a name gives a salt, the structure may show the parent alone.
Respond with the bare value in µmol/kg.

Below: 10 compounds and their reported LD50 at 6 h.
CNCCc1cccc(OC(=O)N(C)C)c1 | 57.7
C#CCNC(C)Cc1cccc(OC(=O)N(C)CCC)c1 (racemic) [Compound 19, HCl] | 1300
C#CCN(C)C(C)Cc1cccc(OC(=O)N(C)C2CCCCC2)c1 (racemic) [Compound 28, HCl] | 2000
CN(C)CCc1cccc(OC(=O)N(C)C)c1 | 16
C#CCN(C)CCc1cccc(OC(=O)N(C)CC)c1 | 1250
C#CCNCCc1cccc(OC(=O)N(C)CC)c1 | 458
C#CCNC(C)Cc1cccc(OC(=O)N(C)CC)c1 (stereo not drawn) | 600
C#CCN(C)C(C)Cc1cccc(OC(=O)N(C)C)c1 (racemic) [Compound 20, HCl] | 170
C#CCN(C)CCc1cccc(OC(=O)N(C)C)c1 | 46
C#CCNC(C)Cc1cccc(OC(=O)N(C)C)c1 (stereo not drawn) | 42

Then there is this compound:
// query Param item = C#CCNCCc1cccc(OC(=O)N(C)C)c1 ; retrieve measured LD50 at 6 h.
// result 44.2
